TEST SYSTEM: human TGR1 (NMUR2) (human)
Sequence (chain, as listed by the source): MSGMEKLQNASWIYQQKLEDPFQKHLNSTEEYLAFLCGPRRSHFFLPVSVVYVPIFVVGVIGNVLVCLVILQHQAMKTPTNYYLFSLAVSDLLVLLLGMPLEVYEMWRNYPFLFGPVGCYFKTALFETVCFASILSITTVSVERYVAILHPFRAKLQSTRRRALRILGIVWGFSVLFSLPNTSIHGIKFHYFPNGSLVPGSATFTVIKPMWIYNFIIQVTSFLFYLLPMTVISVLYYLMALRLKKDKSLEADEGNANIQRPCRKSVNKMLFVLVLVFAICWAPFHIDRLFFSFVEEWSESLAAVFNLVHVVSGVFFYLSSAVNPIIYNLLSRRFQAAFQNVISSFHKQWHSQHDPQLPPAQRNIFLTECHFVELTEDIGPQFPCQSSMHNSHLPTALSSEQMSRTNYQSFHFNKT
MEASUREMENT DESCRIPTION: Scatchard analysis, radioligand filter binding, human TGR1/CHO membrane fraction
Where no end group is shown, it is not given here.
ENDPOINT: Kd (µM)
Express your answer in µM, writing the number without its unit.

### Prompt Look up Kd for this binder: YFLFRPRN-NH2 (also: 125I label (position not given here)) [125I-NMU8 (radiation labeled ligand)]
### Response 135
